biological target: Sterol O-acyltransferase 1 (Rattus norvegicus); test: In vitro inhibition of acyl coenzyme A:cholesterol acyltransferase (ACAT) in rat hepatic microsomes by using AIV assay.; parameters: species or system Liver; details: read-out: IC50
Sequence (O70536 whole entry): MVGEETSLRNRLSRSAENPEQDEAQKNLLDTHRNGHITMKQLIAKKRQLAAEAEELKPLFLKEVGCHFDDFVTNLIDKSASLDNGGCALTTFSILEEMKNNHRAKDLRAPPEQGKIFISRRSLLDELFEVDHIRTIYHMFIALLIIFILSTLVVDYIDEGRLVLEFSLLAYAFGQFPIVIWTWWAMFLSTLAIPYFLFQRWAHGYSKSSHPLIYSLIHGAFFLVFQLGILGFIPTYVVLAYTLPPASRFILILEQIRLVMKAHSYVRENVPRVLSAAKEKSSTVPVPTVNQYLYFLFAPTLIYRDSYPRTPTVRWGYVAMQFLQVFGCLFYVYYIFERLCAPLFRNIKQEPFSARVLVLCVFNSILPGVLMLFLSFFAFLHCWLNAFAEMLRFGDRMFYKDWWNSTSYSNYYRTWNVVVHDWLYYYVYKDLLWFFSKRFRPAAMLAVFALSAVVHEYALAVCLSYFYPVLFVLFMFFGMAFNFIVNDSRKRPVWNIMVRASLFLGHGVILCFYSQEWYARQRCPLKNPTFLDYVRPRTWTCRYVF
OUTCOME_MEASURE: pIC50
pIC50 field: float, defined as -log10 of concentration (mol/L).

Q) Give the value of pIC50 reported for the following: CCCCCCN(CCCCCSc1nc2ccccc2s1)C(=O)Nc1ccc(F)cc1F
A) 5.40

Q) Give the value of pIC50 reported for the following: CCCCCCN(CCCCCSc1nc2cc([N+](=O)[O-])ccc2[nH]1)C(=O)Nc1ccc(F)cc1F
A) 5.70

Q) Give the value of pIC50 reported for the following: CCCCCCN(CCCCCSc1nc2c(=O)n(C)c(=O)n(C)c2[nH]1)C(=O)NC(C)C
A) 5.44

Q) Give the value of pIC50 reported for the following: CCCCCCCN(CCCCCSc1nc(N)cc(O)n1)C(=O)NC(C)C
A) 4.13

Q) Give the value of pIC50 reported for the following: CCCCCCCN(CCCCCSc1nc(-c2ccccc2)cn1-c1ccccc1)C(=O)Nc1ccc(F)cc1F
A) 5.14

Q) Give the value of pIC50 reported for the following: CCCCCCCN(CCCCCSc1ncccn1)C(=O)Nc1ccc(F)cc1F
A) 5.48

Q) Give the value of pIC50 reported for the following: CCCCCCN(CCCCCSc1nc2cc(C)ccc2[nH]1)C(=O)Nc1ccc(F)cc1F
A) 6.00

Q) Give the value of pIC50 reported for the following: CCCCCCN(CCCCCSc1nc2ccccc2n1C)C(=O)Nc1ccc(F)cc1F
A) 5.60

Q) Give the value of pIC50 reported for the following: CCCCCCCN(CCCCCSc1ccccn1)C(=O)Nc1ccc(F)cc1F
A) 5.40

Q) Give the value of pIC50 reported for the following: CCCCCCN(CCCCCSc1nc2c([nH]1)CCCC2)C(=O)Nc1ccc(F)cc1F
A) 6.09

###

molecular target: Sterol O-acyltransferase 1 (Rattus norvegicus); assay: In vitro inhibition of acyl coenzyme A:cholesterol acyltransferase (ACAT) in rat hepatic microsomes by using AIV assay.; set-up: species or system Liver; conditions: read-out: IC50
Answer each item with its documented IC50.
Reply numerically in µM, unit not repeated.

Q) Give the value of IC50 reported for the following: CCCCCCCN(CCCCCSc1nc[nH]n1)C(=O)Nc1ccc(F)cc1F
A) 5

Q) Give the value of IC50 reported for the following: CCCCCCN(CCCCCSc1nc2ccc[nH]c-2n1)C(=O)Nc1ccc(F)cc1F
A) 3.6

Q) Give the value of IC50 reported for the following: CCCCCCCN(CCCCCSc1nc(N)c2c[nH]nc2n1)C(=O)Nc1ccc(F)cc1F
A) 4.23

Q) Give the value of IC50 reported for the following: CCCCCCCN(CCCCCSc1n[nH]c(-c2ccccc2)n1)C(=O)Nc1ccc(F)cc1F
A) 4

###

experiment: Partition coefficient (logP); assay type: physicochemical; conditions: octanol/water
Answer each item with its documented logP.
Hey, just send me the number, nothing else.

Q) Give the value of logP reported for the following: CCCCCCCN(CCCCCSc1nc(O)c2ccccc2n1)C(=O)Nc1ccc(F)cc1F
A) 6.17

Q) Give the value of logP reported for the following: CCCCCCN(CCCCCSc1nc2ccc[nH]c-2n1)C(=O)NC(C)C
A) 5.62

Q) Give the value of logP reported for the following: CCCCCCN(CCCCCSc1nc2ccc[nH]c-2n1)C(=O)Nc1ccc(F)cc1F
A) 6.22

Q) Give the value of logP reported for the following: CCCCCCCN(CCCCCSc1ccccn1)C(=O)Nc1ccc(F)cc1F
A) 6.41

Q) Give the value of logP reported for the following: CCCCCCN(CCOCCSc1nc2c[nH]cnc-2n1)C(=O)NC(C)C
A) 3.72

Q) Give the value of logP reported for the following: CCCCCCCN(CCCCCSc1[nH]cnc2nncc1-2)C(=O)NC(C)C
A) 5

Q) Give the value of logP reported for the following: CCCCCCCN(CCCCCSc1[nH]cnc2ncnc1-2)C(=O)Nc1ccc(F)cc1F
A) 5.32

Q) Give the value of logP reported for the following: CCCCCCN(CCCCCSc1nc2c[nH]cnc-2n1)C(=O)NC(C)C
A) 4.66

Q) Give the value of logP reported for the following: CCCCCCN(CCCCCSc1nc2ccccc2s1)C(=O)Nc1ccc(F)cc1F
A) 7.78

Q) Give the value of logP reported for the following: CCCCCCCN(CCCCCSc1nc(N)cc(O)n1)C(=O)NC(C)C
A) 5.61

Q) Give the value of logP reported for the following: CCCCCCN(CCOCCSc1nc2c[nH]cnc-2n1)C(=O)Nc1ccc(F)cc1F
A) 4.32

Values compiled from ChEMBL document CHEMBL1128038.
